# System: SK-OV-3 ovarian
# Assay Remarks: NCI tumour cell line growth inhibition, 48 h
Where a SMILES comes first, the peptide text is derived from it. [ ]: non-standard residue; d: D form. The star is where a group is joined. ξ: configuration not given here. NMeY = CN[C@@H](Cc1ccc(O)cc1)C(=O)O; Cbz = O=C(OCc1ccccc1)*; ξA = CC(N)C(=O)O

Compound: CN(C)c1ccc(/C=C(\NC(=O)c2ccccc2)C(=O)Nc2ccccc2C(=O)NN2C(=O)CSC2c2ccc(N(C)C)cc2)cc1 (stereo not given)
System Name: SK-OV-3 ovarian
TGI: > 100 µM
--
Compound: C#CC(C)(C)Oc1cc(OC)c2c(=O)c3ccccc3n(C)c2c1
System Name: SK-OV-3 ovarian
TGI: 54.9 µM
--
Compound: C=C[C@]1(C)CC[C@]2(C)C(CC[C@@]3(C)C2C[C@H](O)[C@H](O)[C@@]3(C)O)C1 (stereo not given in full)
System Name: SK-OV-3 ovarian
TGI: > 100 µM
--
Compound: Nc1ncnc2occ(-c3ccc(NC(=O)Nc4cc(C(F)(F)F)cc(C(F)(F)F)c4)cc3)c12
System Name: SK-OV-3 ovarian
TGI: 6.67 µM
--
Compound: COc1ccccc1C(=O)c1c(N2CCCCC2)c(=O)c1=O
System Name: SK-OV-3 ovarian
TGI: > 100 µM
--
Compound: CC1=NN(c2ccc(C)cc2)C2(C1)SCC(=O)N2c1nc2ccccc2s1 (stereo not given)
System Name: SK-OV-3 ovarian
TGI: > 100 µM
--
Compound: CC1=NN(c2nc(N)nc(/C(C#N)=C/c3ccncc3)n2)C(C)(C)C1
System Name: SK-OV-3 ovarian
TGI: > 100 µM
--
Compound: CCOC(=O)c1cnc2[nH]c(=O)c3ccccc3n2c1=O
System Name: SK-OV-3 ovarian
TGI: > 100 µM
--
Compound: O=C1c2cc(Cl)ccc2-n2c(noc2=O)C2CSCN12 (stereo not given)
System Name: SK-OV-3 ovarian
TGI: > 100 µM
--
Compound: O=C1c2ccccc2-c2ccc(NC(=O)C3CCCCC3C(=O)O)cc21 (stereo not given)
System Name: SK-OV-3 ovarian
TGI: > 100 µM
--
Compound: Oc1c2cccc1Cc1cccc3c1OCCOCCOCCOCCOc1c(cccc1Cc1cccc(c1O)C3)C2
System Name: SK-OV-3 ovarian
TGI: > 100 µM
--
Compound: O=CNc1cccc2c3c([nH]c12)CCCCCC3
System Name: SK-OV-3 ovarian
TGI: > 100 µM
--
Compound: COC(=O)/C(C#N)=C1\N=NNN1CCCN1CCOCC1
System Name: SK-OV-3 ovarian
TGI: > 100 µM
--
Compound: O=C1c2ccccc2NC2C(O)c3ccccc3N12 (stereo not given)
System Name: SK-OV-3 ovarian
TGI: > 100 µM
--
Compound: CC1(C)N=C(N)N=C(N)N1c1ccc(OCC(=O)Nc2cccc(S(=O)(=O)F)c2)c(Cl)c1
System Name: SK-OV-3 ovarian
TGI: > 100 µM
--
Compound: CNc1ccc2nc(-c3ccc(OC(=O)N(C)C)cc3)cn2c1
System Name: SK-OV-3 ovarian
TGI: 33 µM
--
Compound: COc1ccc(C[C@H]2C[C@@H](O)[C@@H](C)C/C=C/Cc3cccc(O)c3C(=O)O2)cn1
System Name: SK-OV-3 ovarian
TGI: > 100 µM
--
Compound: CC(=O)N(C(C)=O)n1c(Cc2ccc(Cl)cc2)nn(C(C)=O)c1=O
System Name: SK-OV-3 ovarian
TGI: > 100 µM
--
Compound: Oc1ccc(-c2c3c(nc4c2CCc2ccc(Br)cc2-4)-c2cc(Br)ccc2CC3)cc1
System Name: SK-OV-3 ovarian
TGI: 30.6 µM
--
Compound: COc1ccc(C[C@@H](C(=O)NCC(N)=O)N(C)C(=O)[C@@H]2CCCN2C(=O)[C@H](CC(C)C)NC(=O)C(C)NC(=O)OCc2ccccc2)cc1 (stereo not given in full) (Cbz-[ξA]LP[NMeY](Me)G-NH2)
System Name: SK-OV-3 ovarian
TGI: > 100 µM
--
Compound: Cc1cnc(Cl)nc1C(C#N)c1nc2ccccc2n1C (stereo not given)
System Name: SK-OV-3 ovarian
TGI: > 100 µM
--
Compound: N#Cc1c2c(c(N=[N+]=[N-])n3c1nc1ccccc13)CCCC2
System Name: SK-OV-3 ovarian
TGI: 3.64 µM
--
Compound: COC(=O)[C@H](Cc1ccccc1)NC(=O)c1csc([C@@H](C[C@H](C(C)C)N(C)C(=O)[C@@H](NC(=O)[C@H]2CCCCN2C)C2CC2)OC(C)=O)n1
System Name: SK-OV-3 ovarian
TGI: > 25 µM
--
Compound: CN(C)CCCn1c2ccccc2c2cnccc21
System Name: SK-OV-3 ovarian
TGI: > 100 µM
--
Compound: CN(C)c1ccc(C(=NNC(=O)c2cc3ccccc3[nH]2)c2ccc(N(C)C)cc2)cc1
System Name: SK-OV-3 ovarian
TGI: > 87.7 µM
--
Compound: CCOC(=O)c1c2c(n(C)c1-c1ccccc1)C(=O)C(C)=CC2=O
System Name: SK-OV-3 ovarian
TGI: 30.4 µM
--
Compound: CCOC(=O)/C=C1\Nc2ccccc2C12CCc1c([nH]c3ccccc13)C2C(=O)OCC (stereo not given)
System Name: SK-OV-3 ovarian
TGI: > 100 µM
--
Compound: c1ccc2c(c1)CCCc1cc3ccccc3nc1-2
System Name: SK-OV-3 ovarian
TGI: > 100 µM
--
Compound: CCOC(=O)C1C(c2cc(OC)c(O)c(OC)c2)c2cc3c(cc2OC1(C)O)OCO3 (stereo not given)
System Name: SK-OV-3 ovarian
TGI: > 100 µM
--
Compound: NC1=NS(=O)(=O)N=C(N)C1=Cc1ccc([N+](=O)[O-])o1
System Name: SK-OV-3 ovarian
TGI: > 100 µM
--
Compound: CC(C)OP(=O)(OC(C)C)C(N(C)C)P(=O)(OC(C)C)OC(C)C.[Cl][Sn]([Cl])([Cl])[c]1ccccc1
System Name: SK-OV-3 ovarian
TGI: 17.3 µM
--
Compound: O=C1OC(c2ccc(O)cc2)(c2ccc(O)cc2)c2cccc3cccc1c23
System Name: SK-OV-3 ovarian
TGI: 33.1 µM
--
Compound: CCOC(=O)CCC1(C(=O)OC)CCCC1=O (stereo not given)
System Name: SK-OV-3 ovarian
TGI: > 100 µM
--
Compound: CCCCN(CCCC)C(=NCc1ccccc1)NC#N
System Name: SK-OV-3 ovarian
TGI: 70.6 µM
--
Compound: CCOP(=O)(OCC)/C(C#N)=C\c1cccc2ccccc12
System Name: SK-OV-3 ovarian
TGI: > 100 µM
--
Compound: Cc1ccc(C2=Nc3c(N)ncnc3NC(c3cccc(Nc4ccnc5cc(C(F)(F)F)ccc45)c3)C2)cc1 (stereo not given)
System Name: SK-OV-3 ovarian
TGI: 51 µM
--
Compound: CC1(CC(=O)O)OC2CCCCCC2O1 (stereo not given) (tested in a mixture with another compound)
System Name: SK-OV-3 ovarian
TGI: > 100 µM
--
Compound: N#CC1c2ccccc2-c2ccccc2N1C(=O)c1ccccc1 (stereo not given)
System Name: SK-OV-3 ovarian
TGI: > 45.2 µM
--
Compound: COc1ccc([Se]c2ccc(OC)cc2OC)c(OC)c1
System Name: SK-OV-3 ovarian
TGI: 92.1 µM
--
Compound: O=C(CCCCCCCCC(=O)OCC1OC(n2cnc3c(=O)[nH]cnc32)C(O)C1O)OCC1OC(n2cnc3c(=O)[nH]cnc32)C(O)C1O (stereo not given)
System Name: SK-OV-3 ovarian
TGI: > 100 µM
